reported-metric: CH4 permeability
Reply with the number and its unit after it.

Completed entries (count: 6):
Please report the recorded CH4 permeability for *c1ccc(C(c2ccc(N3C(=O)c4ccc(C(=O)c5ccc6c(c5)C(=O)N(*)C6=O)cc4C3=O)cc2)(C(F)(F)F)C(F)(F)F)cc1 (repeat unit) .
0.191 Barrer

Please report the recorded CH4 permeability for *c1ccc(*)c(C(=O)c2ccccc2)c1 (repeat unit) .
0.36 Barrer

Please report the recorded CH4 permeability for *c1c(C)cc(-c2cc(C)c(N3C(=O)c4cc5c(cc4C3=O)C3(C)CCC5(C)c4cc5c(cc43)C(=O)N(*)C5=O)c3ccccc23)c2ccccc12 (repeat unit) .
230 Barrer

Please report the recorded CH4 permeability for */C(C)=C(/*)[Si](C)(C)c1ccccc1 (repeat unit) .
1.7 Barrer

Please report the recorded CH4 permeability for *c1c(C)c(C)c(N2C(=O)c3ccc(Oc4c(C)cccc4Oc4ccc5c(c4)C(=O)N(*)C5=O)cc3C2=O)c(C)c1C (repeat unit) .
0.7 Barrer

Please report the recorded CH4 permeability for *c1cc(C)c(C)c(N2C(=O)c3ccc(Oc4cc(C(C)(C)C)ccc4Oc4ccc5c(c4)C(=O)N(*)C5=O)cc3C2=O)c1C (repeat unit) .
2.5 Barrer

Attention now turns to another entry.
Please report the recorded CH4 permeability for *Nc1ccc(C(c2ccc(NC(=O)c3cc(C(*)=O)cc(-c4ccccc4)c3)cc2)(C(F)(F)F)C(F)(F)F)cc1 (repeat unit) .
0.78 Barrer
